# METHOD NOTES: chemical genetic growth profiling, strain panel (AID 1159580);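 also: tested at 20 µM; growth read once vehicle control cultures reached saturation at 30 °C; 1 = growth at the plate median or of vehicle wells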
# MEASUREMENT SETUP: S. cerevisiae deletion strains, growth OD, locus YLR342W, strain FKS1 (second series), stronger effect = lower value
About 2,000 (36%) of roughly 5,500 compounds were called active. Inconclusive results (about 18%) are left out. This is one part of the list.
Each entry below carries its recorded normalized growth.
Form field (numeric): enter value without unit.

Please review the following examples before continuing.
COMPOUND	EXPERIMENTAL ENDPOINT	RESULT VALUE
NC(=O)c1ncn([C@@H]2O[C@H](CO)[C@@H](O)[C@H]2O)n1	normalized growth	0.991
CC1(C)C2CC(=O)[C@]3(C)C(CC[C@@]4(C)[C@H](c5ccoc5)OC(=O)C5OC543)[C@@]2(C)[C@@H](O)C[C@H]1O (some centres not stated)	normalized growth	1.04
CC1(C)C2CC(=O)[C@]3(C)C(CC[C@@]4(C)[C@H](c5ccoc5)OC(=O)[C@H]5O[C@]543)[C@@]2(C)C(=O)C[C@H]1O (some centres not stated)	normalized growth	0.988

// lookup normalized growth for COc1cccc2c(C)cc(=O)[nH]c12 0.838

// lookup normalized growth for CCC1OC(=O)[C@H](C)C(=O)[C@H](C)[C@@H](OC2O[C@H](C)C[C@H](N(C)C)[C@H]2O)[C@](C)(OC)C2(CCCn3cnc(-c4cccnc4)c3)C[C@@H](C)C(=O)[C@H](C)[C@H]3N(C2)C(=O)O[C@]13C (some centres not stated) 0.999

// lookup normalized growth for CC(C)(C)NCC(O)c1cc(Cl)c(N)c(Cl)c1 (configuration not stated) 1.02

// lookup normalized growth for CCN1C[C@]2(C)CC[C@H](OC)[C@]34C2[C@H](O)[C@]2(OCO[C@@]25C[C@H](OC)[C@H]2C[C@]3(O)C5[C@H]2O)C14 1.03

====

Each entry below carries its recorded normalized growth.
# METHOD NOTES: chemical genetic growth profiling, strain panel (AID 1159580)
# MEASUREMENT SETUP: S. cerevisiae deletion strains, growth OD, locus YLL041C, strain sdh2, stronger effect = lower value
Hit rate of the full screen: of about 5,500 compounds, about 2,000 (36%) were called active. Inconclusive results (about 18%) are left out. Some of the results follow.

Please review the following examples before continuing.
COMPOUND	RESULT VALUE
CC(C)[N+](C)(CCC(C(N)=O)(c1ccccc1)c1ccccc1)C(C)C	0.995 (inactive)
COc1cc2occc2c2oc(=O)ccc12	1 (inactive)
COc1c2ccoc2cc2oc(=O)ccc12	0.992 (inactive)
O=c1ccc2cc(OC3OC(CO)C(O)C(O)C3O)c(O)cc2o1 (stereo not given)	0.983 (inactive)
O=C(O[C@@H]1Cc2c(O)cc(O)cc2O[C@@H]1c1cc(O)c(=O)c2c(O)c(O)cc([C@H]3Oc4cc(O)cc(O)c4C[C@H]3OC(=O)c3cc(O)c(O)c(O)c3)c2c1)c1cc(O)c(O)c(O)c1	0.661 (active)

// lookup normalized growth for CC(CC(C(N)=O)(c1ccccc1)c1ccccc1)N(C)C (stereo not given) 0.979 (inactive)

// lookup normalized growth for COc1cc(OC)c2ccc(=O)oc2c1 0.979 (inactive)

// lookup normalized growth for O=C1C=C2C(=CCOC2O)O1 (stereo not given) 0.84 (active)

// lookup normalized growth for O=c1ccc2c(O)c3ccoc3cc2o1 0.981 (inactive)

// lookup normalized growth for O=C(OC1Cc2c(O)cc(O)cc2OC1c1cc(=O)c(O)c2c(O)c(O)cc(C3Oc4cc(O)cc(O)c4CC3O)c2c1)c1cc(O)c(O)c(O)c1 (stereo not given) 0.989 (inactive)

====

# METHOD NOTES: chemical genetic growth profiling, strain panel (AID 1159580)
# MEASUREMENT SETUP: S. cerevisiae deletion strains, growth OD, locus YIL125W, strain kgd1
Screen size: about 5,500 compounds; about 2,000 (36%) were called active. About 18% were inconclusive and are not listed. No stated cut-off is given here; in the data, active means normalized growth mostly below about 0.91 (no sharp cut-off); inconclusive means no clear call, values can overlap the other calls; inactive means mostly above about 0.92. Some of the results follow.
Give one outcome, nothing more. List: active, inactive

Worked examples follow.
COMPOUND	LABEL CLASS
C[C@@H]1O[C@@H](OC[C@H]2OC(Oc3c(-c4ccc(OCCO)c(OCCO)c4)oc4cc(OCCO)cc(O)c4c3=O)[C@H](O)[C@@H](O)[C@@H]2O)[C@H](O)[C@H](O)[C@H]1O (stereo not given in full)	inactive
CC/C(=C(/CC)c1ccc(O)cc1)c1ccc(O)cc1	inactive
CCC(N)C(O)c1ccc(O)c(O)c1 (stereo not given)	inactive
Oc1cc2c(cc1O)C1c3ccc(O)c(O)c3OCC1(O)C2 (stereo not given)	inactive

Hi team, can someone confirm the assay call for CNC(C)C(O)c1ccccc1 (stereo not given) ? inactive

Hi team, can someone confirm the assay call for C[C@]12CCC3c4ccc(O)cc4CCC3C1CC[C@@H]2O (stereo not given in full) ? inactive

Hi team, can someone confirm the assay call for Oc1ccc2c(c1)OCC1(O)Cc3cc(O)c(O)cc3C21 (stereo not given) ? inactive

Hi team, can someone confirm the assay call for CN1C(C)(C)CCCC1(C)C ? inactive

Hi team, can someone confirm the assay call for COc1cc(OC)c2c(=O)c(O)c(-c3ccc(OC)c(OC)c3)oc2c1 ? active

Hi team, can someone confirm the assay call for COc1ccc(-c2oc3c(CC=C(C)C)c(O[C@@H]4O[C@H](CO)[C@@H](O)[C@H](O)[C@H]4O)cc(O)c3c(=O)c2O[C@@H]2O[C@@H](C)[C@H](O)[C@@H](O)[C@H]2O)cc1 ? inactive

====

# METHOD NOTES: chemical genetic growth profiling, strain panel (AID 1159580);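 also: tested at 20 µM; growth read once vehicle control cultures reached saturation at 30 °C; 1 = growth at the plate median or of vehicle wells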
# MEASUREMENT SETUP: S. cerevisiae deletion strains, growth OD, locus YHR013C, strain ard1
Among all 5,500 compounds or so, about 2,000 (36%) were called active. Not shown: some 18% with an inconclusive outcome. Rule as the data show it: active = normalized growth mostly below about 0.91 (no sharp cut-off); inconclusive = no clear call, values can overlap the other calls; inactive = mostly above about 0.92. The list shows a part of the results.
Give one outcome, nothing more. List: True = active, False = inactive

Worked examples follow.
> print(dat)
                                   compound  label.class
1  C[C@@H]1CC[C@@]2(NC1)O[C@H]1C[C@H]3C4CC=C5C[C@@H](O)CC[C@]5(C)C4CC[C@]3(C)C1[C@@H]2C (stereo partly drawn)         True
2  CC1CC[C@]2(NC1)O[C@H]1CC3C4CC[C@H]5C[C@@H](O)CC[C@]5(C)C4CC[C@]3(C)[C@H]1[C@@H]2C (stereo partly drawn)         True
3  C=C1CCC2(OC1)OC1CC3C4CC=C5CC(O)CC(O)C5(C)C4CCC3(C)C1C2C (stereo not drawn)        False
4  CC(C1OC(C)(C)C(O)C1O)[C@@H]1CC[C@]2(C)C3=CCC4C(C)(C)C(=O)CC[C@]4(C)C3CC[C@@]12C (stereo partly drawn)        False
5                        CCc1cc(C(N)=S)ccn1        False

Hi team, can someone confirm the assay call for C[C@@H]1CC[C@@]2(OC1)OC1CC3C4CC=C5C[C@@H](O)CC[C@]5(C)C4CC[C@]3(C)C1[C@@H]2C (stereo partly drawn) ? False

Hi team, can someone confirm the assay call for CC1CCC2(OC1)OC1CC3C4CC[C@H]5C[C@@H](O)CC[C@]5(C)C4CC(=O)[C@]3(C)C1C2C (stereo partly drawn) ? False

Hi team, can someone confirm the assay call for CC(CC(O)C1OC1(C)C)[C@@H]1CCC2(C)C3=CCC4C(C)(C)C(=O)CCC4(C)C3CC[C@@]12C (stereo partly drawn) ? False

====

# METHOD NOTES: chemical genetic growth profiling, strain panel (AID 1159580);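 also: tested at 20 µM; growth read once vehicle control cultures reached saturation at 30 °C; 1 = growth at the plate median or of vehicle wells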
# MEASUREMENT SETUP: S. cerevisiae deletion strains, growth OD, locus YER123W, strain YCK3, stronger effect = lower value
Screen size: about 5,500 compounds; about 2,000 (36%) were called active. Inconclusive results (about 18%) are left out. The list shows a part of the results.
EXPERIMENTAL ENDPOINT: normalized growth
Form field (numeric): enter value without unit.

> print(dat)
                                   compound  experimental.endpoint  result.value
1  CC(NC(=S)N/N=C\c1ccccc1O)c1ccccc1 (stereo not drawn)      normalized growth         0.905
2   O=C(Nc1ccccc1)Nc1ccc(Cl)cc1[N+](=O)[O-]      normalized growth          0.92
3           COc1ccccc1NC(=S)N/N=C\c1ccccc1O      normalized growth         0.928
4             Oc1c(Br)cc(Br)cc1/C=N\n1cnnc1      normalized growth         0.452

Consider the additional compound presented here.
// lookup normalized growth for O=C(NNc1ccc(F)cc1F)c1sccc1Cl 0.841

====

# METHOD NOTES: chemical genetic growth profiling, strain panel (AID 1159580);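 also: tested at 20 µM; growth read once vehicle control cultures reached saturation at 30 °C; 1 = growth at the plate median or of vehicle wells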
# MEASUREMENT SETUP: S. cerevisiae deletion strains, growth OD, locus YKL068W, stronger effect = lower value
Among all 5,500 compounds or so, about 2,000 (36%) were called active. Not shown: some 18% with an inconclusive outcome. The list shows a part of the results.
EXPERIMENTAL ENDPOINT: normalized growth
Form field (numeric): enter value without unit.

MOLECULE	RESULT VALUE
C[N+](C)(C)CC(O)CC(=O)O (stereo not drawn)	1
CC12CCC3c4ccc(OC(=O)c5ccccc5)cc4CCC3C1CCC2O (stereo not drawn)	1.01
C[C@@H]1CC[C@@]2(NC1)O[C@H]1C[C@H]3C4CC=C5C[C@@H](O)CC[C@]5(C)C4CC[C@]3(C)C1[C@@H]2C (stereo partly drawn)	1.01
O=C(O[C@@H]1Cc2c(O)cc(O)cc2O[C@@H]1c1cc(O)c(=O)c2c(O)c(O)cc([C@H]3Oc4cc(O)cc(O)c4C[C@H]3OC(=O)c3cc(O)c(O)c(O)c3)c2c1)c1cc(O)c(O)c(O)c1	1.04
CNC(=O)Oc1cccc2c1OC(C)(C)O2	1

// lookup normalized growth for CC(=O)OC1CN2CCC1CC2 (stereo not drawn) 0.982

// lookup normalized growth for C[C@]12CCC3c4ccc(OS(=O)(=O)O)cc4CCC3C1CC[C@H]2O (stereo partly drawn) 0.995

// lookup normalized growth for Cc1[nH]ccc2c1[nH]c1cc(=O)ccc12 0.997

// lookup normalized growth for CC(C)c1c(O)c(-c2cc3c(c(C(C)C)c2O)CCC2C(C)(C)CCC[C@]32C)cc2c1CCC1C(C)(C)CCC[C@]21C (stereo partly drawn) 1.01

// lookup normalized growth for CC(C)c1c(O)ccc2c1CCC1[C@@](C)(C=O)CCC[C@]21C (stereo partly drawn) 0.969

// lookup normalized growth for CC(C)[N+](C)(CCC(C(N)=O)(c1ccccc1)c1ccccc1)C(C)C 0.998

// lookup normalized growth for NC(=NCCC[C@H](N)C(=O)O)N[N+](=O)[O-] 0.997

// lookup normalized growth for CC(CC(O)C1OC1(C)C)[C@@H]1CCC2(C)C3=CCC4C(C)(C)C(=O)CCC4(C)C3CC[C@@]12C (stereo partly drawn) 1.01

// lookup normalized growth for COC(=O)[C@@]1(C)CCC[C@]2(C)c3ccc(O)c(C(C)C)c3CCC12 (stereo partly drawn) 0.979

// lookup normalized growth for CCC(=O)c1c(O)cc(O)cc1O 0.989

// lookup normalized growth for C[C@@H]([C@H](O)c1ccccc1)N(C)C 1

// lookup normalized growth for CCOC(=O)c1c(C)cc(O)cc1O 0.928

// lookup normalized growth for CC(=O)OC(C)C[N+](C)(C)C (stereo not drawn) 1.02

// lookup normalized growth for O=C(OC1Cc2c(O)cc(O)cc2OC1c1cc(=O)c(O)c2c(O)c(O)cc(C3Oc4cc(O)cc(O)c4CC3O)c2c1)c1cc(O)c(O)c(O)c1 (stereo not drawn) 0.996

// lookup normalized growth for NC(CSCSCC(N)C(=O)O)C(=O)O (stereo not drawn) 1

// lookup normalized growth for CC(C)c1c(O)ccc2c1CCC1C(C)(C)CCC[C@]21C (stereo partly drawn) 1.03

// lookup normalized growth for CC1CC[C@@]2(OC1)O[C@H]1CC3C4CC[C@@H]5CC(=O)CC[C@]5(C)C4CC[C@]3(C)[C@H]1[C@@H]2C (stereo partly drawn) 0.985

// lookup normalized growth for C[C@@H]1CC[C@@]2(OC1)OC1CC3C4CC=C5C[C@@H](O)CC[C@]5(C)C4CC[C@]3(C)C1[C@@H]2C (stereo partly drawn) 0.984

// lookup normalized growth for CC(=O)OCC1=C(C(=O)O)N2C(=O)[C@@H](NC(=O)Cc3cccs3)[C@H]2SC1 0.977

// lookup normalized growth for CC1CC[C@]2(NC1)O[C@H]1CC3C4CC[C@H]5C[C@@H](O)CC[C@]5(C)C4CC[C@]3(C)[C@H]1[C@@H]2C (stereo partly drawn) 0.135

// lookup normalized growth for COC(=O)c1c(C)cc(OC)cc1O 0.995

// lookup normalized growth for C[C@]12CCC3c4ccc(O)cc4CCC3C1CC[C@@H]2O (stereo partly drawn) 1.02

// lookup normalized growth for CC12CCC3c4ccc(OCc5ccccc5)cc4CCC3C1C[C@@H](O)[C@@H]2O (stereo partly drawn) 0.187
